Measured yeast fitness of individual entries
B1: tRNA (parent)
chain: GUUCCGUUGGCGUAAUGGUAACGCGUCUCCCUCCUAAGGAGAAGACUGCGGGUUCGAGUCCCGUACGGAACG

- Variants of: B1
- experiment-notes: yeast fitness relative to wild type (ratio to wild type); higher = fitter; tRNA-Arg(CCU), competitive growth, 37 C, YPD
Variants at the floor of the assay were thinned out.
reported-metric: yeast fitness

var: C11G U59C
reported-metric: yeast fitness
result-modifier: =
result-value: 0.589
//
var: G6A C31U U32C G67C
reported-metric: yeast fitness
result-modifier: =
result-value: 0.593
//
var: C27U C30G
reported-metric: yeast fitness
result-modifier: =
result-value: 0.624
//
var: C11U C29G A37C A42U A57G G67A
reported-metric: yeast fitness
result-modifier: =
result-value: 0.566
//
var: C27U G48C A57C
reported-metric: yeast fitness
result-modifier: ≤
result-value: 0.5
//
var: G6A U16C G67C
reported-metric: yeast fitness
result-modifier: ≤
result-value: 0.5
//
var: C4A C29U G67A A70U
reported-metric: yeast fitness
result-modifier: ≤
result-value: 0.5
//
var: C4G G23C C55U A70U
reported-metric: yeast fitness
result-modifier: ≤
result-value: 0.5
//
var: U3C A69U
reported-metric: yeast fitness
result-modifier: =
result-value: 1.03
//
var: C33G A36C C49A C60G A70U
reported-metric: yeast fitness
result-modifier: ≤
result-value: 0.5
//
var: C27G U59C C66G
reported-metric: yeast fitness
result-modifier: ≤
result-value: 0.5
//
var: U3A G25A G38A
reported-metric: yeast fitness
result-modifier: =
result-value: 0.583
//
var: G6A A43G A65U
reported-metric: yeast fitness
result-modifier: =
result-value: 0.604
//
var: U8G A42U A43C
reported-metric: yeast fitness
result-modifier: =
result-value: 0.51
//
var: U2C C4G C22U C30A A65U
reported-metric: yeast fitness
result-modifier: ≤
result-value: 0.5
//
var: U28A A36U C61A A69U
reported-metric: yeast fitness
result-modifier: ≤
result-value: 0.5
//
var: A37U A65C
reported-metric: yeast fitness
result-modifier: =
result-value: 0.739
//
var: C4A C49G G63C
reported-metric: yeast fitness
result-modifier: =
result-value: 0.9
//
var: A21U C22U G48C A65G C66U
reported-metric: yeast fitness
result-modifier: ≤
result-value: 0.5
//
var: G6A G9A A36C A37U G51A C62G
reported-metric: yeast fitness
result-modifier: ≤
result-value: 0.5
//
var: U2A A43C
reported-metric: yeast fitness
result-modifier: =
result-value: 0.893
//
var: U2A C24U C30U C33G A36C A37C A42C A65U
reported-metric: yeast fitness
result-modifier: ≤
result-value: 0.5
